# Assayed System: Mas-related G-protein coupled receptor member X1 (Homo sapiens)
# Assay Comment: activators of human MrgX1 calcium signaling – HEK293 cells, Fluo-4 calcium flux, confirmation (AID 602412)
# Test Parameters: MrgX1-HEK293, Fluo-4 calcium fluorescence, FDSS, at 10 µM; stronger effect = higher value
This is one part of the list.
Please provide measured activation for the entries that follow.
Unit % implied. Number only.

q: Fill in: activation of O=C1C(=O)N(CC2COc3ccccc3O2)c2ccccc21 (stereo not drawn) is ___
a: 226

q: Which activation reading was recorded for the compound Cc1nc(C)c(-c2csc(NCCc3ccccc3)n2)s1 ?
a: 170

q: // activation lookup, key: CCCc1[nH]nc2c1C(c1ccc(Br)s1)C(C#N)=C(N)O2 (stereo not drawn)
a: 141
